# Test system: Mus musculus
# protocol summary: In vivo inhibition of phospho-p185erbB-2 expression in FRE/erbB-2 tumors in nu/nu mice at 200 mg/kg dose.
Class 1.0: inhibition in vivo at 200 mg/kg at least 40%. Class 0.0: inhibition in vivo at 200 mg/kg below 40%.

Threshold query (inhibition in vivo at 200 mg/kg >= 40%) on `CO[C@H]1C[C@H](C)CC2=C(NCCO)C(=O)C=C(NC(=O)/C(C)=C/CC[C@H](OC)[C@@H](OC(N)=O)/C(C)=C/[C@H](C)[C@H]1O)C2=O`
1.0

Decide: inhibition in vivo at 200 mg/kg of `C=CCNC1=C2C[C@@H](C)C[C@H](OC)[C@H](O)[C@@H](C)/C=C(\C)[C@H](OC(N)=O)[C@@H](OC)/C=C\C=C(/C)C(=O)NC(=CC1=O)C2=O` >= 40%?
1.0

Please check the record `CO[C@H]1C[C@H](C)CC2=C(N3CC(O)C3)C(=O)C=C(NC(=O)/C(C)=C/CC[C@H](OC)[C@@H](OC(N)=O)/C(C)=C/[C@H](C)[C@H]1O)C2=O` and state if its inhibition in vivo at 200 mg/kg is at or above 40%.
1.0

Does inhibition in vivo at 200 mg/kg meet or surpass 40% for `CO[C@H]1C[C@H](C)CC2=C(N3CCC3)C(=O)C=C(NC(=O)/C(C)=C/CC[C@H](OC)[C@@H](OC(N)=O)/C(C)=C/[C@H](C)[C@H]1O)C2=O` ?
0.0

Could you please find out whether `CNC1=C2C[C@@H](C)C[C@H](OC)[C@H](O)[C@@H](C)/C=C(\C)[C@H](OC(N)=O)[C@@H](OC)CC/C=C(\C)C(=O)NC(=CC1=O)C2=O` has inhibition in vivo at 200 mg/kg that meets 40% or exceeds it?
0.0

Please indicate if the recorded inhibition in vivo at 200 mg/kg for `CO[C@H]1/C=C\C=C(/C)C(=O)NC2=CC(=O)C(N3CCC3)=C(C[C@@H](C)C[C@H](OC)[C@H](O)[C@@H](C)/C=C(\C)[C@@H]1OC(N)=O)C2=O` meets or exceeds 40%.
1.0
